System: MDA-MB-435
Test: NCI tumour cell line growth inhibition, 48 h; in the data active means GI50 below about 0.43 µM; inactive means the rest
Would you mind answering with one of these outcomes? 1 for active, -1 for inactive

Example results:
[[record]]
compound = "CCOC(=O)c1cc2c(cc1Cl)SC(=Nc1ccccc1)N(S(=O)(=O)c1ccc(Cl)cc1)S2(=O)=O"
class_label = -1

[[record]]
compound = "COc1ccc2c(c1)nc(C(=O)c1ccco1)c(C(F)(F)F)[n+]2[O-]"
class_label = -1

[[record]]
compound = "COc1ccc2c(c1)c(-c1nc(-c3c[nH]c4ccncc34)cs1)cn2C"
class_label = -1

[[record]]
compound = "NC(=O)c1cc([N+](=O)[O-])c(Cl)c([N+](=O)[O-])c1Cl"
class_label = -1

[[record]]
compound = "CCC(C)[C@H](NC(=O)Nc1cc(C(F)(F)F)cc(C(F)(F)F)c1)C(=O)N[C@@H](Cc1cn(C)cn1)C(=O)OC (some centres undefined)"
class_label = -1


// switching to the query compound
Just curious, what result did NCCCC[C@@H]1NC(=O)[C@H](CC(=O)O)NC(=O)CNC(=O)[C@H](CCCN=C(N)N)NC(=O)[C@@H](N)CSSC[C@@H](C(=O)O)NC(=O)[C@H](CC(=O)O)NC(=O)[C@@H]2CCCN2C(=O)CNC1=O get here?
-1

====

Record form. Attribute: log10 TGI. Fill in for each entry.
Test system: HS 578T breast
Assay: NCI tumour cell line growth inhibition, 48 h
Answers are given as log10 of TGI in µM.

[[record]]
molecule = "COc1ccc2c(c1)[nH]c(=O)c1c3cccc(F)c3cn21"
parameter = "log10 TGI"
value = -1.04

[[record]]
molecule = "COc1ncc(Nc2ncc([C@@H](C)N3CCN(S(C)(=O)=O)CC3)cc2-c2nc(C)nc(N)n2)cc1F"
parameter = "log10 TGI"
value = 0.48


Hi team, please reply with log10 TGI for each item in this list.
1. COCc1c(-c2cc3cc(C)cc(OC)c3s2)c2c(N)ncnn2c1CN1CCNC(=O)C1
2. CCCCCCCCCCCCCCCCOP(=O)(O)OCC(N)C(=O)O (configuration not stated)
3. C[C@]12CC[C@H]3[C@@H](CC=C4C[C@@H](N5CCCC5)CC[C@@]43C)[C@@H]1C/C(=C\c1cccc(OCCN3CCOCC3)c1)[C@@H]2O
4. CC1CC/C(=C\c2ccc(F)cc2)C(=O)/C1=C/c1ccc(F)cc1 (configuration not stated)
5. Cc1sc2c(c1C)/C(=N\O)c1cccn1-2

[1.14, 1.61, 1.26, 1.50, 1.66]

Hi team, please reply with log10 TGI for each item in this list.
1. CC1=C2[C@@H](CC1)[C@]1(C)O[C@@](C(C)C)(C[C@H]1OC(=O)CO)[C@H]2OC(=O)C1CC1c1ccccc1 (some centres not stated)
2. COc1ccc2c(c1)c(-c1nc(-c3c[nH]c4ccncc34)cs1)cn2C
3. O=C(/C=C\c1ccc([N+](=O)[O-])cc1)c1ccccc(=O)c1O
4. CC1C(C)N(C(=O)CCl)c2ccccc2N1C(=O)CCl (configuration not stated)

1: 0.38; 2: 0.60; 3: 1.57; 4: 0.88

====

Tested on: SF-268 CNS
Assay: NCI tumour cell line growth inhibition, 48 h
Parameter: GI50

Take a look at these entries with their results.
[[record]]
sample_smiles = "Cc1ccc(/C=N/Nc2nc(Nc3ccccc3)nc(-n3nc(C)cc3C)n2)cc1"
target_under_test = "SF-268 CNS"
parameter = "GI50"
value = "4.42 µM"

[[record]]
sample_smiles = "COCc1c(-c2cc3cc(C)cc(OC)c3s2)c2c(N)ncnn2c1CN1CCNC(=O)C1"
target_under_test = "SF-268 CNS"
parameter = "GI50"
value = "4.3 µM"

[[record]]
sample_smiles = "COc1cc(Nc2ncc(-c3ccccc3)o2)cc(OC)c1"
target_under_test = "SF-268 CNS"
parameter = "GI50"
value = "> 25 µM"

[[record]]
sample_smiles = "CCOCCCn1c2c(c3c(O)cccc31)C(=O)c1ccccc1-2"
target_under_test = "SF-268 CNS"
parameter = "GI50"
value = "18.1 µM"

[[record]]
sample_smiles = "COC(=O)c1ccc(CN2C(=O)C(Cl)=C(Nc3cccc(Cl)c3C)C2=O)cc1"
target_under_test = "SF-268 CNS"
parameter = "GI50"
value = "45.3 µM"

[[record]]
sample_smiles = "COc1ccc(-c2nc(-c3ccc(C)cc3)cn3ccnc23)cc1"
target_under_test = "SF-268 CNS"
parameter = "GI50"
value = "3.06 µM"

[[record]]
sample_smiles = "COc1cc(OC)cc(-c2n/c(=C\\c3c(O)[nH]c4ccc(OC)cc34)cc3c2=Nc2ccccc2-3)c1"
target_under_test = "SF-268 CNS"
parameter = "GI50"
value = "10.2 µM"


In the following, a different compound is considered.
// output GI50; input COc1cccc(CC(C)=C(c2ccc(OCCN3CCCCC3)cc2)c2ccc(OCCN3CCCCC3)cc2)c1 ; system SF-268 CNS
2.08 µM
